Target: UniProt:P25779
Assay: Inhibition of C-terminal truncated Trypanosoma cruzi Tulahuen Cruzain using Z-FR-AMC as substrate at 100 uM measured for 5 mins by fluorescence based analysis
value.kind: inhibition (%)

Sample answers from the record:
molecule: Cc1ccc(CNC(=O)[C@H]2Cc3ccccc3CN2)o1
system.under.test: UniProt:P25779
inhibition, %: 4

molecule: Cc1ccc(CNC(=O)C2Cc3ccc(F)cc3C(=O)O2)o1 (configuration not stated)
system.under.test: UniProt:P25779
inhibition, %: 13

molecule: O=C(NCc1ccccn1)C1Cc2ccccc2CN1 (configuration not stated)
system.under.test: UniProt:P25779
inhibition, %: 7

[I] O=C(NCc1ccco1)C1Cc2ccccc2CN1 (racemic)
[II] O=C(NCc1ccco1)[C@@H]1Cc2ccccc2CO1
Lookup: Hey, which is lower on measured inhibition, I or II ? Your choice should be expressed through its label.
Found: II
(II: 25%, I: 100%)

[1] O=C(NCc1ccco1)C1Cc2c(F)cccc2CN1 (racemic)
[2] Cc1ccc(CNC(=O)[C@@H]2Cc3ccccc3CN2)o1
Lookup: Returns the identifier with the smallest measured inhibition among 1 and 2 . Give the chosen item's label as your response.
Found: 2
(2: 8%, 1: 100%)

====

Target: Cruzipain (Trypanosoma cruzi)
Assay: Competitive inhibition of C-terminal truncated Trypanosoma cruzi Tulahuen Cruzain using Z-FR-AMC as substrate by Michaelis-menten based analysis
value.kind: Ki (µM)

[P] O=C(NCc1ccco1)C1Cc2c(F)cccc2CN1 (racemic)
[Q] O=C(NCc1ccco1)C1Cc2ccccc2CN1 (racemic)
Lookup: Lab notebook, comparison: P versus Q , higher Ki goes to which? The response must carry the label of the picked entry.
Found: P
(P: 27 µM, Q: 4.6 µM)

====

Target: UniProtKB P07711
Sequence (P07711 whole entry, the tested form may be a part): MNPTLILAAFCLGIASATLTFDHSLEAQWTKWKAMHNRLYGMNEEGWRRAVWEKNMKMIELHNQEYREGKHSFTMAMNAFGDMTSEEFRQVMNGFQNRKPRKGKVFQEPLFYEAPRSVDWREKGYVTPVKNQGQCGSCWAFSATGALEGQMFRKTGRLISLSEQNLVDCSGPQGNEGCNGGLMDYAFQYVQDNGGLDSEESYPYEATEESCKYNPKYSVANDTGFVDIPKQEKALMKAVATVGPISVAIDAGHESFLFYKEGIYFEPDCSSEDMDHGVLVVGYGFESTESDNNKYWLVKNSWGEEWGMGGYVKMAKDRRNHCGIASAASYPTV
Assay: Inhibition of human recombinant Cathepsin L (18 to 333 residues) assessed as residual activity using Z-FR-AMC as substrate at 100 uM measured for 5 mins by fluorescence based analysis
Details: recombinant human Cathepsin L (residues 18 to 333), probe Z-FR-AMC, read-out: Activity
value.kind: activity at 5 min, 100 µM (%)
Report the figure in % without appending any unit label.

compound: O=C(NCc1ccco1)C1Cc2c(F)cccc2CN1 (racemic)
value.kind: activity at 5 min, 100 µM
numeric.value: 65

Now, please, on to the next compound.
Lookup: State activity at 5 min, 100 µM on UniProtKB P07711. Entry: O=C(NCc1ccco1)C1Cc2ccccc2CN1 (racemic)
Found: 51

====

Target: Cruzipain (Trypanosoma cruzi, UniProt P25779)
Sequence (P25779 whole entry, the tested form may be a part): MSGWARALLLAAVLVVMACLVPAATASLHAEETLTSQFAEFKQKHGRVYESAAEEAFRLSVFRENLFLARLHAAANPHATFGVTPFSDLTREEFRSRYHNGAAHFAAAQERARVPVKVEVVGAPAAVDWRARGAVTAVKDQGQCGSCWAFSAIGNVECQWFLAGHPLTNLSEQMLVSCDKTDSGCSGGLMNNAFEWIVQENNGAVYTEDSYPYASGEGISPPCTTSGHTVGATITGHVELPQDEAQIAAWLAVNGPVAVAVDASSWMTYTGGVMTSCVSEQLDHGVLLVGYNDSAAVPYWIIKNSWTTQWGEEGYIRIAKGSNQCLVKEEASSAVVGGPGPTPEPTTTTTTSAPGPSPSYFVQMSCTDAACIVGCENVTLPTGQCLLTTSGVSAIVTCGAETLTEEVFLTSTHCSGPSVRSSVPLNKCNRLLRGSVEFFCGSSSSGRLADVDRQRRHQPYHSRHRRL
Assay: Inhibition of C-terminal truncated Trypanosoma cruzi Tulahuen Cruzain using Z-FR-AMC as substrate measured for 5 mins by fluorescence based analysis
value.kind: IC50 (µM)

[A] O=C(NCc1ccco1)C1Cc2c(F)cccc2CN1 (racemic)
[B] O=C(NCc1ccco1)C1Cc2ccccc2CN1 (racemic)
Lookup: # argmax over IC50 for candidates A and B Refer to your chosen entry by its label in the reply.
Found: A
(A: 26 µM, B: 3 µM)
